recovery reference
# Assay Notes: In vitro cell permeability assay
# Experimental Parameters: LLC-PK1
Answer format: numeric, % implied, no suffix.

{"columns": ["Smiles Input", "recovery / %"],
 "data": [
  ["CSCC[C@@H]1NC(=O)CNC(=O)CNC(=O)[C@H](C)NC(=O)[C@H](C(C)C)NC(=O)CNC(=O)[C@H](CC(C)C)NC(=O)[C@@H]2CCCN2C(=O)[C@H](CC(=O)O)NC(=O)[C@H](CCC(=O)O)NC(=O)[C@H](Cc2ccc(O)cc2)NC(=O)[C@H](CC(C)C)NC(=O)CNC1=O", 96.5]
]}

Could you now consider this next compound?
INPUT: Could you tell me which recovery is on file for CSCC[C@@H]1NC(=O)CNC(=O)CNC(=O)[C@H](C)NC(=O)[C@H](C(C)C)NC(=O)CNC(=O)[C@H](CC(C)C)NC(=O)[C@@H]2CCCN2C(=O)[C@H](CC(=O)O)NC(=O)[C@H](CCC(=O)O)NC(=O)[C@H](Cc2ccc(O)cc2)NC(=O)[C@H](CC(C)C)NC(=O)[C@H](CO)NC(=O)[C@H](C(C)C)NC(=O)[C@H]2CCCN2C(=O)[C@@H]2CCCN2C(=O)[C@H](Cc2ccc(O)cc2)NC(=O)[C@H](C(C)C)NC(=O)CNC1=O ?
OUTPUT: 92.9

----------
# Assay Notes: In vitro cell permeability assay
# Experimental Parameters: pig, LLC-PK1, pH 7.4
Measured Endpoint: Papp A→B at 120 min, 30 nM (×10⁻⁶ cm/s)
Answer format: numeric, ×10⁻⁶ cm/s implied, no suffix.

INPUT: Could you tell me which Papp A→B at 120 min, 30 nM is on file for C[C@H]1O[C@@H](O[C@H]2[C@@H](O)C[C@H](O[C@H]3[C@@H](O)C[C@H](O[C@H]4CC[C@@]5(C)[C@H](CC[C@@H]6[C@@H]5C[C@@H](O)[C@]5(C)[C@@H](C7=CC(=O)OC7)CC[C@]65O)C4)O[C@@H]3C)O[C@@H]2C)C[C@H](O)[C@@H]1O [3H-Digoxin, Digoxin, reference compound] ?
OUTPUT: 2.45

----------
# Assay Notes: In vitro cell permeability assay
# Experimental Parameters: pig, LLC-PK1, pH 7.4, Papp BA, LLC-Parent, basolateral to apical, no inhibitor
Measured Endpoint: Papp B→A at 120 min, 30 nM (×10⁻⁶ cm/s)
Answer format: numeric, ×10⁻⁶ cm/s implied, no suffix.

INPUT: Could you tell me which Papp B→A at 120 min, 30 nM is on file for C[C@H]1O[C@@H](O[C@H]2[C@@H](O)C[C@H](O[C@H]3[C@@H](O)C[C@H](O[C@H]4CC[C@@]5(C)[C@H](CC[C@@H]6[C@@H]5C[C@@H](O)[C@]5(C)[C@@H](C7=CC(=O)OC7)CC[C@]65O)C4)O[C@@H]3C)O[C@@H]2C)C[C@H](O)[C@@H]1O [3H-Digoxin, Digoxin, reference compound] ?
OUTPUT: 2.31

----------
# Test system: H1/NCa HA (A/New Caledonia/20/1999 (H1N1))
# Type: binding, influenza A virus
pIC50: −log10 of the molar value. Non-standard residues stand in square brackets, D forms with d. Residues, ends and D or L forms follow the SMILES beside them. ξ: configuration not given here. ξhhPhe = NC(CCCc1ccccc1)C(=O)O; dAbu = CC[C@@H](N)C(=O)O
Could you label it Y if measured pIC50 is 6 or higher, and N otherwise?

Known results for molecules:
{"columns": ["Molecule", "Target Or System", "Assigned Class"],
 "data": [
  ["CSCC[C@@H]1NC(=O)CNC(=O)CNC(=O)[C@H](C)NC(=O)[C@H](C(C)C)NC(=O)CNC(=O)[C@H](CC(C)C)NC(=O)[C@@H]2CCCN2C(=O)[C@H](CC(=O)O)NC(=O)[C@H](CCC(=O)O)NC(=O)[C@H](Cc2ccc(O)cc2)NC(=O)[C@H](CC(C)C)NC(=O)[C@H]2CCCN2C(=O)[C@@H]2CCCN2C(=O)CNC1=O [CP3]", "H1/NCa HA (A/New Caledonia/20/1999 (H1N1))", "N"],
  ["CSCC[C@@H]1NC(=O)CNC(=O)CNC(=O)[C@H](C)NC(=O)[C@H](C(C)C)NC(=O)CNC(=O)[C@H](CC(C)C)NC(=O)[C@@H]2CCCN2C(=O)[C@H](CC(=O)O)NC(=O)[C@H](CCC(=O)O)NC(=O)[C@H](Cc2ccc(O)cc2)NC(=O)[C@H](CC(C)C)NC(=O)[C@H](CO)NC(=O)[C@H](C(C)C)NC(=O)[C@H]2CCCN2C(=O)CNC(=O)[C@H](Cc2ccc(O)cc2)NC(=O)[C@H](C(C)C)NC(=O)CNC1=O [CP4]", "H1/NCa HA (A/New Caledonia/20/1999 (H1N1))", "Y"],
  ["CC[C@H]1NC(=O)[C@H](C(C)C)NC(=O)CNC(=O)C(CCCc2ccccc2)NC(=O)[C@@H]2CCCN2C(=O)[C@H](CC(=O)O)NC(=O)[C@H](CCC(=O)O)NC(=O)[C@H](Cc2ccc(O)cc2)NC(=O)[C@H](CC(C)C)NC(=O)[C@H]2CCCN2C(=O)CNC(=O)CNC(=O)[C@H](CCSC)NC(=O)CNC(=O)CNC1=O (stereo partly drawn) [CP7] (cyclo([dP]LYEDP[ξhhPhe]GV[dAbu]GGMGG))", "H1/NCa HA (A/New Caledonia/20/1999 (H1N1))", "Y"]
]}

INPUT: Could you please find out whether CSCC[C@@H]1NC(=O)[C@H](CCC(=O)O)NC(=O)CNC(=O)[C@H](C)NC(=O)[C@H](C(C)C)NC(=O)CNC(=O)[C@H](CC(C)C)NC(=O)[C@@H]2CCCN2C(=O)[C@H](CC(=O)O)NC(=O)[C@H](CCCNC(=N)N)NC(=O)[C@H](Cc2ccc(O)cc2)NC(=O)[C@@H](NC(=O)CCC(=O)O)CSSC[C@@H](C(N)=O)NC1=O [CP13] has pIC50 that meets 6 or exceeds it?
OUTPUT: N

INPUT: Could you please find out whether CSCC[C@H](NC(=O)CNC(=O)CNC(=O)[C@H](C)NC(=O)[C@@H](NC(=O)CNC(=O)[C@H](CC(C)C)NC(=O)[C@@H]1CCCN1C(=O)[C@H](CC(=O)O)NC(=O)[C@H](CCCNC(=N)N)NC(=O)[C@H](Cc1ccc(O)cc1)NC(=O)[C@H](CC(C)C)NC(=O)[C@H](CO)NC(=O)[C@@H](NC(=O)CCC(=O)O)C(C)C)C(C)C)C(=O)NCC(=O)N[C@H](C(=O)N[C@@H](Cc1ccc(O)cc1)C(N)=O)C(C)C [LP1] has pIC50 that meets 6 or exceeds it?
OUTPUT: N

----------
# Tested on: P-gp (MDR1)
# Assay Notes: In vitro cell permeability / P-gp substrate assay
# Experimental Parameters: pig, LLC-PK1, pH 7.4, Papp AB, LLC-MDR1, apical to basolateral, no inhibitor
Measured Endpoint: Papp A→B at 120 min, 5 µM (×10⁻⁶ cm/s)
Answer format: numeric, ×10⁻⁶ cm/s implied, no suffix.

INPUT: Could you tell me which Papp A→B at 120 min, 5 µM is on file for CSCC[C@@H]1NC(=O)CNC(=O)CNC(=O)[C@H](C)NC(=O)[C@H](C(C)C)NC(=O)CNC(=O)[C@H](CC(C)C)NC(=O)[C@@H]2CCCN2C(=O)[C@H](CC(=O)O)NC(=O)[C@H](CCC(=O)O)NC(=O)[C@H](Cc2ccc(O)cc2)NC(=O)[C@H](CC(C)C)NC(=O)CNC1=O ?
OUTPUT: 0.26

----------
# Assay Notes: In vitro cell permeability assay
# Experimental Parameters: LLC-PK1, pH 7.4
Measured Endpoint: Papp A→B (×10⁻⁶ cm/s)
Answer format: numeric, ×10⁻⁶ cm/s implied, no suffix.

INPUT: Could you tell me which Papp A→B is on file for CSCC[C@@H]1NC(=O)CNC(=O)CNC(=O)[C@H](C)NC(=O)[C@H](C(C)C)NC(=O)CNC(=O)[C@H](CC(C)C)NC(=O)[C@@H]2CCCN2C(=O)[C@H](CC(=O)O)NC(=O)[C@H](CCC(=O)O)NC(=O)[C@H](Cc2ccc(O)cc2)NC(=O)[C@H](CC(C)C)NC(=O)[C@H](CO)NC(=O)[C@H](C(C)C)NC(=O)[C@H]2CCCN2C(=O)[C@@H]2CCCN2C(=O)[C@H](Cc2ccc(O)cc2)NC(=O)[C@H](C(C)C)NC(=O)CNC1=O [CP1] ?
OUTPUT: 0.07

----------
# Test system: P-gp (MDR1)
# Assay Notes: In vitro cell permeability / P-gp substrate assay
# Experimental Parameters: pig, LLC-PK1, pH 7.4, with elacridar (GF120918) 5 µM, Papp BA, LLC-MDR1, basolateral to apical, + 5 µM GF120918
Measured Endpoint: Papp B→A at 120 min, 30 nM

INPUT: Could you tell me which Papp B→A at 120 min, 30 nM is on file for C[C@H]1O[C@@H](O[C@H]2[C@@H](O)C[C@H](O[C@H]3[C@@H](O)C[C@H](O[C@H]4CC[C@@]5(C)[C@H](CC[C@@H]6[C@@H]5C[C@@H](O)[C@]5(C)[C@@H](C7=CC(=O)OC7)CC[C@]65O)C4)O[C@@H]3C)O[C@@H]2C)C[C@H](O)[C@@H]1O [3H-Digoxin, Digoxin, reference compound] ?
OUTPUT: 2.72 ×10⁻⁶ cm/s
